- assay-method-text: Phase I study CXR1002-001: plasma pharmacokinetics (LC-MS/MS)
- Format: in vivo, human
- recorded-conditions: human, plasma, oral, 200 mg, Patient 008 Dose 200 mg; 675 hr; read-out: Concentration
- Source text: PK samples, PD (fasting) samples, blood glucose, and blood triglyceride samples, were taken over a 6-week period. Dose limiting toxicity (DLT) will be based on the toxicity assessments over the first 3-week period of the repeat dosing schedule. […]
measured-metric: concentration at 675 hr (µM)
Quick note: give the figure in µM, leave out the unit.

Task: Suppose we examine the compound O=C(O)C(F)(F)C(F)(F)C(F)(F)C(F)(F)C(F)(F)C(F)(F)C(F)(F)F ; what concentration at 675 hr value has been reported?
Result: 321
